Renal Clearance (% of Total CL) listing for selected molecules.
protocol_details: Human clearance and half life of tested drugs
Assay type: in vivo
Reply with just the number (in %).

Recorded Renal Clearance (% of Total CL), per entry:
smiles_notation=CN/C(=N/CCSCc1nc[nH]c1C)NC#N recorded_measurement=97
smiles_notation=NCCCC[C@H](N[C@@H](CCc1ccccc1)C(=O)O)C(=O)N1CCC[C@H]1C(=O)O recorded_measurement=100

Ask: I would be grateful if you could share the reported Renal Clearance (% of Total CL) for `CCC(C)(C)C(=O)O[C@H]1C[C@@H](C)C=C2C=C[C@H](C)[C@H](CC[C@@H]3C[C@@H](O)CC(=O)O3)[C@H]21` .
Reply: 13

====

subject_of_test: OAT1 (Homo sapiens)
Sequence (Q4U2R8 1-563): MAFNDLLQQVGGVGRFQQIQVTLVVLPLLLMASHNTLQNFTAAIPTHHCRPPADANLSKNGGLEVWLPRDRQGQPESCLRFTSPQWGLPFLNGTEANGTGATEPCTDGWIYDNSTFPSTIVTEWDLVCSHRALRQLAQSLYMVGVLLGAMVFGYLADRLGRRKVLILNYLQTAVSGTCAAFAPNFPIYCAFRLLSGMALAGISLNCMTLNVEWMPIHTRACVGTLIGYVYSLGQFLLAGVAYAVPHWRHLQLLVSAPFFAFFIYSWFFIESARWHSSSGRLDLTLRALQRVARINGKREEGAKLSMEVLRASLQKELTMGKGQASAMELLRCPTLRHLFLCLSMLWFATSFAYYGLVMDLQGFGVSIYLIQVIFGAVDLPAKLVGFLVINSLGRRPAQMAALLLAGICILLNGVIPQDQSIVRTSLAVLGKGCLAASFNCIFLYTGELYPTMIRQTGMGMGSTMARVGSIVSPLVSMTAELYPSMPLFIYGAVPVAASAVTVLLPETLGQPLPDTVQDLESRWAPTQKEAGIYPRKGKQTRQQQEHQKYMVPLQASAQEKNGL
protocol_details: OAT1-mediated fluorescein uptake inhibition assay in ciPTEC-OAT1
readout: pIC50
Note on units: pIC50 is unitless, being -log10 of a concentration expressed in mol/L.

Recorded pIC50, per entry:
compound="CCCCc1nc(Cl)c(CO)n1Cc1ccc(-c2ccccc2-c2nn[nH]n2)cc1 [Losartan, losartan]" subject_of_test="OAT1 (Homo sapiens)" readout=pIC50 recorded_measurement=5.07
compound="CCCCC(=O)N(Cc1ccc(-c2ccccc2-c2nnn[nH]2)cc1)[C@H](C(=O)O)C(C)C [Valsartan, valsartan]" subject_of_test="OAT1 (Homo sapiens)" readout=pIC50 recorded_measurement=4.94
compound="C[C@H](CS)C(=O)N1CCC[C@H]1C(=O)O [Captopril, captopril]" subject_of_test="OAT1 (Homo sapiens)" readout=pIC50 recorded_measurement=2.69

Ask: I would be grateful if you could share the reported pIC50 for CN/C(=N/CCSCc1nc[nH]c1C)NC#N [Cimetidine] .
Reply: 3.05

Ask: I would be grateful if you could share the reported pIC50 for CC[C@H](C)C(=O)O[C@H]1C[C@H](O)C=C2C=C[C@H](C)[C@H](CC[C@@H](O)C[C@@H](O)CC(=O)O)[C@H]21 [Pravastatin, pravastatin] .
Reply: 4.86

====

IC50 at 10 min listing for selected compounds.
subject_of_test: OAT1 (Homo sapiens, UniProt Q4U2R8)
protocol_details: OAT1-mediated fluorescein uptake inhibition assay in ciPTEC-OAT1
condition_parameters: human, ciPTEC-OAT1 mature monolayers, pH 7.4, probe fluorescein 1 µM
Reply with just the number (in µM).

compound="CC[C@H](C)C(=O)O[C@H]1C[C@H](O)C=C2C=C[C@H](C)[C@H](CC[C@@H](O)C[C@@H](O)CC(=O)O)[C@H]21 [Pravastatin, pravastatin]" readout="IC50 at 10 min" units_text=µM recorded_measurement=23.2

Could you now look at the following compound, please?
Ask: I would be grateful if you could share the reported IC50 at 10 min for CCCCc1nc(Cl)c(CO)n1Cc1ccc(-c2ccccc2-c2nn[nH]n2)cc1 [Losartan, losartan] .
Reply: 3.1
